tested on: MDA-MB-231 breast; experiment: NCI-60 one-dose screen, 48 h (100 = growth as untreated, 0 = no growth, -100 = all killed); conditions: 10 µM
The panel holds about 83,000 compounds, 20% with a hit somewhere; the sample as a whole holds those more often.
Label Criterion met for high-side growth (at or above 60%) and Criterion not met for low-side growth (below it).

These recorded examples may help you get a feel for the data.
{"molecule": "Cc1ccc([N+](=O)[O-])c(C(=O)Nc2ccc(-c3ccc4c(c3)NC(=O)/C4=C\\c3ccc[nH]3)cc2)c1", "target": "MDA-MB-231 breast", "classification": "Criterion not met"}
{"molecule": "O=C(Cn1cc(CSc2nnc3oc4ccccc4n23)nn1)Nc1cccc(Cl)c1", "target": "MDA-MB-231 breast", "classification": "Criterion met"}
{"molecule": "CCOc1ccc2ncc(C#Cc3cncc(C(=O)Nc4ccc(CN5CCN(C)CC5)c(C(F)(F)F)c4)c3)n2n1", "target": "MDA-MB-231 breast", "classification": "Criterion not met"}

API: above_or_equal(metric=growth, cutoff=60%) for item CSc1nc(-c2cccc(C)c2)c2cc(-c3ccccc3)n(C)c2n1
Criterion not met

Reported growth reaches at least 60% for CC(=O)NS(=O)(=O)c1ccc(NC(=O)CSC2=NC(c3ccccc3)C(C(C)=O)=C(C)N2)cc1 (centres undefined) ?
Criterion met

Has Cc1ccc(/C=C(\C#N)n2nnc3c(F)cccc32)cc1 a recorded growth greater than or equal to 60%?
Criterion not met

Say whether O=C(NO)c1ccc(CNC(=O)[C@H]2Cc3c([nH]c4ccccc34)[C@H](c3ccccc3)N2)cc1 shows growth of 60% or more.
Criterion not met

Is the recorded value of growth equal to or greater than 60% for this molecule? Cc1ccc(-c2cc(C(=O)N=Nc3c(O)[nH]c4ccccc34)c3ccccc3n2)cc1
Criterion not met

Hi, just wondering whether C[C@H]1[C@H](C)CC[C@]2(COC(=O)CCC(=O)NCC#CCN3CCNCC3)CC[C@]3(C)C(=CC[C@@H]4[C@@]5(C)CCCNC(C)(C)[C@@H]5CC[C@]43C)[C@H]12 shows growth of 60% or higher.
Criterion not met

Evaluate O=C(Nc1ccccc1)Nc1nc2ccccc2s1 : growth at minimum 60%?
Criterion met

Dear colleague, could you confirm whether CN(C)c1ccc(/C=C/C(=O)c2ccc(NC(=O)CN3C(=O)NC(C)(c4ccccc4)C3=O)cc2)cc1 (centres undefined) has growth at or above 60%?
Criterion met

Hello, I need to know if COC1=C[C@@]23CCC(=O)N2CCc2cc4c(cc2[C@H]3[C@H]1OC(=O)C(C)(C)O)OCO4 has measured growth not below 60%. Thanks!
Criterion met

In plain terms: is recorded growth at least 60% for O=c1[nH][nH]c(Nc2ccccc2)c1N=Nc1ccc(F)cc1 ?
Criterion met

// inclusive: growth at least 60%? input: Cc1ccc(NC(=O)c2ccc(-n3c(=O)[nH]c4ccccc4c3=O)cc2)cc1
Criterion met
